# Tested on: OVCAR-4 ovarian
# method_notes: NCI tumour cell line growth inhibition, 48 h
quantity_measured: TGI

Give me TGI for each of these compounds, listed below.
1. COc1cc(Nc2nc3c(N)cc(C(F)(F)F)cc3nc2-c2ccccc2)cc(OC)c1OC
2. Cc1ccc(-c2c3c(nn2-c2ccc(S(=O)(=O)NC(=O)Nc4ccccc4)cc2)-c2ccccc2C3)cc1
3. O=S(=O)(c1ccccc1)[C@H]1[C@@H]2O[C@@H]2C[C@@H]1O
4. CCCCC1C=Cn2c(=O)oc3c(OC(C)C)c(OC(C)C)c(O)c1c32 (stereo unspecified)

58.8 µM
51.5 µM
> 100 µM
42.8 µM

Give me TGI for each of these compounds, listed below.
1. CC(=O)c1ccc(NC(=O)/C(CC(=O)/C=C/c2ccccc2)=N/NC(N)=S)cc1
2. OC1(c2ccccc2)CSc2ncnn21 (stereo unspecified)
3. CC(=O)Nc1cccc(C#Cc2cncnc2Nc2ccc(OCc3cccc(F)c3)c(Cl)c2)n1
4. Clc1ccc(-c2noc(CN3CCCCC3)n2)cc1
5. CCCCCC(=O)OCCOCCOCCOCCOCCOCc1ccccc1

1: > 100 µM; 2: > 100 µM; 3: > 25 µM; 4: > 100 µM; 5: > 100 µM

Give me TGI for each of these compounds, listed below.
1. COC(=O)C(=Cc1ccccc1[N+](=O)[O-])C(=O)OC
2. COc1cc(C(C)c2cc3c(cc2OCCN)OCO3)cc(OC)c1OC (stereo unspecified)

16.1 µM
> 100 µM

====

Assign TGI to each entry below.
# Tested on: UO-31 renal
# method_notes: NCI tumour cell line growth inhibition, 48 h
Where a SMILES comes first, the peptide text is derived from it. [ ]: non-standard residue; d: D form. The star is where a group is joined. Bn2Val = CC(C)[C@@H](C(=O)*)N(Cc1ccccc1)Cc1ccccc1; NH(4-F-benzyl) = Fc1ccc(CN*)cc1; NMeV = CN[C@H](C(=O)O)C(C)C; dNMeA = CN[C@H](C)C(=O)O

Sample answers from the record:
COC(=O)Cc1c([C@H]2[C@H](CC(=O)OC)c3ccccc3N2C(=O)C(F)(F)F)[nH]c2ccccc12: > 100 µM
O=C1Cc2ccccc2N1/N=C\c1ccc([N+](=O)[O-])cc1: > 100 µM
CC(C)[C@H](NC(=O)[C@H](C(C)C)N(Cc1ccccc1)Cc1ccccc1)C(=O)N(C)[C@H](C(=O)N1CCC[C@H]1C(=O)N(C)[C@H](C)C(=O)NCc1ccc(F)cc1)C(C)C (Bn2Val-V[NMeV]P[dNMeA]-{NH(4-F-benzyl)}): 6.42 µM
COc1ccc2c3c([nH]c2c1CC=C(C)C)C(=O)C=C(C)C3=O: > 25 µM
CC1(C)C2CCC1(C)[C@H](O)[C@H]2Nc1cc(C(F)(F)F)cc(C(F)(F)F)c1 (some centres undefined): 12.7 µM

Give me TGI for each of these compounds, listed below.
1. Cc1nc(Nc2ccc(Cl)cc2Cl)sc1C(=O)Nc1ccccc1
2. Cc1cc2nc3c4cc(C=O)ccc4n(CCN(C)C)c3nc2cc1C
3. CC(=O)OC1(C)C(=O)OC/C2=C/CN(C)CCC(OC(=O)C(O)(C(C)Cl)CC1C)C2=O (centres undefined)
4. CCOC(=O)C1=CC(C)(C(=O)OCC)Nc2c(nc(SC)[nH]c2=O)N1 (centres undefined)

["> 100 µM", "8.78 µM", "> 100 µM", "> 10 µM"]
